- System: HCV replicon 2B
- assay explanation: microbe, parasite or virus in culture
- Assay type: cell-based, Hepatitis C virus (HCV)
- condition summary: read-out: 2B IC50; HCV replicon 2B; Replicon Assay A
Recorded IC50, one value per entry.
Please respond with the number in nM and leave the unit unwritten.

These solved cases illustrate the format of a correct answer.
molecule | attribute measured | unit tag | reported result
COC(=O)N[C@H](C(=O)N1CCC[C@H]1c1ncc(-c2cc(F)c3c(c2)OC(c2cc4c(s2)CCCO4)n2c-3cc3cc(-c4cnc([C@@H]5CCCN5C(=O)[C@@H](NC(=O)OC)C5CCOC(C)(C)C5)[nH]4)ccc32)[nH]1)C(C)C (single isomer, unassigned) [Compound 412] | IC50 | nM | 0.005
CCCc1ccc(C2Oc3cc(-c4cnc([C@@H]5CCCN5C(=O)[C@@H](NC(=O)OC)C(C)C)[nH]4)cc(F)c3-c3cc4cc(-c5cnc([C@@H]6C[C@H]7C[C@H]7N6C(=O)[C@@H](NC(=O)OC)C(C)C)[nH]5)ccc4n32)s1 (single isomer, unassigned) [Compound 562] | IC50 | nM | 0.754
COC(=O)N[C@H](C(=O)N1CCC[C@H]1c1ncc(-c2ccc3c(c2)OC(c2cc4ccccc4s2)n2c-3cc3cc(-c4cnc([C@@H]5C[C@H]6C[C@H]6N5C(=O)[C@@H](NC(=O)OC)C(C)C)[nH]4)ccc32)[nH]1)C(C)C (single isomer, unassigned) [Compound 608] | IC50 | nM | 0.031

Now for another entry.
For COC(=O)N[C@H](C(=O)N1CCC[C@H]1c1ncc(-c2cc(F)c3c(c2)OC(c2ccc(C(F)(F)F)s2)n2c-3cc3cc(-c4cnc([C@@H]5CCCN5C(=O)[C@@H](NC(=O)OC)C5CCOCC5)[nH]4)ccc32)[nH]1)C(C)C (single isomer, unassigned) [Compound 655] , what is its reported IC50?
0.24

###

- Test system: HCV replicon 1AY93H
- assay explanation: microbe, parasite or virus in culture
- Assay type: cell-based, Hepatitis C virus (HCV)
- condition summary: read-out: 1A Y93H IC50; replicon 1AY93H; Replicon Assay A
attribute measured: IC50 (nM)
State the answer as a number, implicitly in nM.

compound | IC50 / nM
COC(=O)N[C@H](C(=O)N1CCC[C@H]1c1ncc(-c2cc(F)c3c(c2)OC(c2ccc(CC4CC4)s2)n2c-3cc3cc(-c4cnc([C@@H]5CCCN5C(=O)[C@@H](NC(=O)OC)C5CCOCC5)[nH]4)ccc32)[nH]1)C(C)C (single isomer, unassigned) [Compound 356] | 0.0214

Below: the item to evaluate.
Recorded IC50 for COC(=O)NC(C(=O)N1CCC[C@H]1c1ncc(-c2cc(F)c3c(c2)OC(c2ccc(C4CC4)s2)n2c-3cc3cc(-c4cnc([C@@H]5CCCN5C(=O)C(NC(=O)OC)C5C[C@@H](C)O[C@@H](C)C5)[nH]4)ccc32)[nH]1)C1C[C@@H](C)O[C@@H](C)C1 (single isomer, unassigned) [Compound 301] , please?
0.11

###

Recorded pIC50, one value per entry.
- Tested on: HCV replicon 1A
- assay explanation: microbe, parasite or virus in culture
- Type: cell-based, Hepatitis C virus (HCV)
- condition summary: HCV replicon 1A; Replicon Assay A
Just so you know, pIC50 here is -log10 of the concentration in molar units; reply with that number alone.

// below: answered compounds
compound | pIC50
COC(=O)NC(C(=O)N1[C@@H]2C[C@@H]2C[C@H]1c1ncc(-c2ccc3c(c2)cc2n3C(c3ccc(CC4CC4)s3)Oc3cc(-c4cnc([C@@H]5CCCN5C(=O)[C@@H](NC(=O)OC)C(C)C)[nH]4)cc(F)c3-2)[nH]1)C1CCOC(C)(C)C1 (single isomer, unassigned) [Compound 418] | 11.57
CCc1ccc(C2Oc3cc(-c4cnc([C@@H]5CCCN5C(=O)[C@@H](NC(=O)OC)C(C)C)[nH]4)cc(C)c3-c3cc4cc(-c5cnc([C@@H]6CCCN6C(=O)C(NC(=O)OC)C6C[C@@H](C)O[C@H](C)C6)[nH]5)ccc4n32)s1 (single isomer, unassigned) [Compound 545] | 11.45
COC(=O)N[C@H](C(=O)N1CCC[C@H]1c1ncc(-c2cc(F)c3c(c2)OC(c2ccc(C4CC4)s2)n2c-3c(C)c3cc(-c4cnc([C@@H]5CCCN5C(=O)[C@@H](NC(=O)OC)C(C)C)[nH]4)ccc32)[nH]1)C(C)C (single isomer, unassigned) [Compound 842] | 11.18
COC(=O)N[C@H](C(=O)N1CCC[C@H]1c1ncc(-c2cc(F)c3c(c2)OC(c2cc4c(s2)CCC4)n2c-3cc3cc(-c4cnc([C@@H]5C[C@H]6C[C@H]6N5C(=O)[C@@H](NC(=O)OC)C5C[C@@H](C)O[C@@H](C)C5)[nH]4)ccc32)[nH]1)C(C)C (single isomer, unassigned) [Compound 552] | 11.01

Please give the measured pIC50 for this compound: COC(=O)N[C@H](C(=O)N1CCC[C@H]1c1ncc(-c2cc(C)c3c(c2)OC(c2ccc(C4CC4)s2)n2c-3cc3cc(-c4cnc([C@@H]5CCCN5C(=O)[C@@H](NC(=O)OC)C(C)C)[nH]4)ccc32)[nH]1)C(C)C (single isomer, unassigned) [Compound 753]
11.24

pIC50 for COCc1ccc(C2Oc3cc(-c4cnc([C@@H]5CCCN5C(=O)[C@@H](NC(=O)OC)C(C)C)[nH]4)cc(F)c3-c3cc4cc(-c5cnc([C@@H]6CCCN6C(=O)[C@@H](NC(=O)OC)[C@@H]6C[C@@H](C)O[C@@H](C)C6)[nH]5)ccc4n32)s1 (single isomer, unassigned) [Compound 534] ?
11.16

Which measured pIC50 value corresponds to COC(=O)N[C@H](C(=O)N1CCC[C@H]1c1ncc(-c2ccc3c(c2)OC(c2ccc(C4CC4)s2)n2c-3c(F)c3cc(-c4cnc([C@@H]5CCCN5C(=O)[C@@H](NC(=O)OC)C(C)C)[nH]4)ccc32)[nH]1)C(C)C (single isomer, unassigned) [Compound 606] ?
11.59

###

- Tested on: HCV replicon 2B
- assay explanation: microbe, parasite or virus in culture
- Format: cell-based, Hepatitis C virus (HCV)
- condition summary: Hepatitis C virus, read-out: 2B IC50, HCV replicon 2B; Replicon Assay A
IC50 overview
# unit: nM | format: bare number

compound | IC50, nM
COC(=O)N[C@H](C(=O)N1CCC[C@H]1c1nc(-c2ccc3c(c2)OC(c2cc4sccc4s2)n2c-3cc3cc(-c4c[nH]c([C@@H]5C[C@H]6C[C@H]6N5C(=O)[C@@H](NC(=O)OC)C5CCOCC5)n4)ccc32)c[nH]1)C(C)C (mixture of isomers) | 0.16

Any idea what its IC50 is? The compound is COC(=O)N[C@H](C(=O)N1CCC[C@H]1c1ncc(-c2ccc3c(c2)cc2n3C(c3ccc(Cl)s3)Oc3cc(-c4cnc([C@@H]5CCCN5C(=O)[C@H](NC(=O)OC)C(C)C)[nH]4)cc(F)c3-2)[nH]1)C(C)C (mixture of isomers)
0.471

###

Overview of reported log10(IC50) across a group of compounds:
- System: HCV replicon 1AY93H
- assay explanation: microbe, parasite or virus in culture
- Assay type: cell-based, Hepatitis C virus (HCV)
- condition summary: read-out: 1A Y93H IC50; HCV replicon 1A Y93H; Replicon Assay A
Could you please treat all values as log10 of IC50 in nM?

Please review the following examples before continuing.
compound | log10(IC50)
COCc1ccc(C2Oc3cc(-c4cnc([C@@H]5CCCN5C(=O)[C@@H](NC(=O)OC)C(C)C)[nH]4)cc(F)c3-c3cc4cc(-c5c[nH]c([C@@H]6CCCN6C(=O)[C@@H](NC(=O)OC)C(C)C)n5)ccc4n32)s1 (single isomer, unassigned) [Compound 511] | -0.40
COC(=O)N[C@H](C(=O)N1C2CC2C[C@H]1c1ncc(-c2cc(F)c3c(c2)OC(c2ccc(C4CC4)s2)n2c-3cc3cc(-c4cnc([C@@H]5CCCN5C(=O)[C@@H](NC(=O)OC)C5C[C@@H](C)O[C@@H](C)C5)[nH]4)ccc32)[nH]1)C(C)C (single isomer, unassigned) [Compound 554] | -0.63
COC(=O)NC(C(=O)N1[C@@H]2C[C@@H]2C[C@H]1c1ncc(-c2ccc3c(c2)c(F)c2n3C(c3ccc(C4CC4)s3)Oc3cc(-c4cnc([C@@H]5CCCN5C(=O)[C@@H](NC(=O)OC)C(C)C)[nH]4)cc(F)c3-2)[nH]1)C1CCOC(C)(C)C1 (single isomer, unassigned) [Compound 422] | -0.97
CCc1ccc(C2Oc3cc(-c4cnc([C@@H]5CCCN5C(=O)[C@@H](NC(=O)OC)C(C)C)[nH]4)cc(C)c3-c3cc4cc(-c5cnc([C@@H]6CCCN6C(=O)C(NC(=O)OC)C6C[C@@H](C)O[C@@H](C)C6)[nH]5)ccc4n32)s1 (single isomer, unassigned) [Compound 544] | -0.54

Suppose we examine the compound COC(=O)N[C@H](C(=O)N1CCC[C@H]1c1cnc(-c2ccc3c(c2)cc2n3C(c3cc4ccccc4s3)Oc3cc(-c4cnc([C@@H]5CCCN5C(=O)[C@@H](NC(=O)OC)C5CCOCC5)[nH]4)ccc3-2)[nH]1)C1CCOCC1 (single isomer, unassigned) [Compound 811] ; what log10(IC50) value has been reported?
-1.24

What value of log10(IC50) has been reported for the following compound? COC(=O)NC(C(=O)N1[C@@H]2C[C@@H]2C[C@H]1c1ncc(-c2ccc3c(c2)c(F)c2n3C(c3ccc(C4CC4)s3)Oc3cc(-c4cnc([C@@H]5CCCN5C(=O)[C@@H](NC(=O)OC)C(C)C)[nH]4)ccc3-2)[nH]1)C1C[C@@H](C)O[C@@H](C)C1 (single isomer, unassigned) [Compound 645]
-1.65

Given COCc1ccc(C2Oc3cc(-c4cnc([C@@H]5CCCN5C(=O)[C@@H](NC(=O)OC)C(C)C)[nH]4)cc(F)c3-c3cc4cc(-c5c[nH]c([C@@H]6CCCN6C(=O)[C@@H](NC(=O)OC)C(C)C)n5)ccc4n32)s1 (single isomer, unassigned) [Compound 513] , state its recorded log10(IC50).
-1.41
